# Tested on: CP217
# Test: qHTS profiling for inhibitors of Plasmodium falciparum proliferation (AID 504749); also: nearly all actives have a fitted effect of over 60% in size
# Conditions: P. falciparum in erythrocytes, SYBR Green DNA, 72 h; series mostly up to 28.7 µM
Results filed as inconclusive are left out. Active and inactive are the calls of the source. Calls follow the shape of the dose curve; as a rule, active = well fitted inhibition curve with a large enough effect; inconclusive = small, poorly fitted or top-dose-only effect; inactive = flat fitted curve, though single readings scatter.
Classes used: active, inactive

{"Compound": "O=C(O)c1ccccc1O", "Assigned class": "inactive"}
{"Compound": "Cc1cc(C(C#N)c2ccc(Cl)cc2)c(Cl)cc1NC(=O)c1cc(I)cc(I)c1O (stereo unspecified)", "Assigned class": "inactive"}
{"Compound": "Cc1cc(N)c2ccccc2[n+]1CCCCCCCCCC[n+]1c(C)cc(N)c2ccccc21", "Assigned class": "active"}
{"Compound": "CC(=O)c1ccc2c(c1)N(CCCN(C)C)c1ccccc1S2", "Assigned class": "inactive"}
{"Compound": "CCn1cc(C(=O)O)c(=O)c2cnc(N3CCNCC3)nc21", "Assigned class": "inactive"}
{"Compound": "CCN(CC)CCNC(=O)c1cc(Cl)c(N)cc1OC", "Assigned class": "inactive"}

---

Item-by-item account of activity, negative = cell killing
# Test: Drug repurposing screens with cells derived from glioblastoma tumor samples (AID 1345199); also: % is scaled to controls: 0 for no effect and ±100 for the full control effect; nearly all actives have a fitted effect of over 40% in size
# Conditions: GBM patient neurospheres viability, ATP luminescence, 48 h; at 45.9 µM (top of the series); tumour line D
Inconclusive results are not listed.

{"Compound": "C[C@](N)(Cc1ccc(O)cc1)C(=O)O", "Units symbol": "%", "activity, negative = cell killing": 3.89}
{"Compound": "CC1(C)OC(=O)NC1=O", "Units symbol": "%", "activity, negative = cell killing": -10.8}
{"Compound": "O=C(Oc1ccccc1C(=O)O)c1ccccc1O", "Units symbol": "%", "activity, negative = cell killing": -16.8}
{"Compound": "COc1ccc2[nH]c(S(=O)Cc3ncc(C)c(OC)c3C)nc2n1 (centres undefined)", "Units symbol": "%", "activity, negative = cell killing": -21.6}
{"Compound": "O=S(=O)(O)c1cc(I)c(O)c2ncccc12", "Units symbol": "%", "activity, negative = cell killing": -2.75}
{"Compound": "Nc1ccc(S(=O)(=O)Nc2nccs2)cc1", "Units symbol": "%", "activity, negative = cell killing": -5.75}
{"Compound": "c1ccc(CN(CC2=NCCN2)c2ccccc2)cc1", "Units symbol": "%", "activity, negative = cell killing": -19.1}
{"Compound": "O=C(O)COc1nn(Cc2ccccc2)c2ccccc12", "Units symbol": "%", "activity, negative = cell killing": -3.69}
{"Compound": "CCOC(=O)c1ccc(O)cc1", "Units symbol": "%", "activity, negative = cell killing": 6.74}
{"Compound": "NC(CSCC(=O)O)C(=O)O (centres undefined)", "Units symbol": "%", "activity, negative = cell killing": -6.13}
{"Compound": "CNC(=O)Oc1ccc2c(c1)[C@]1(C)CCN(C)[C@@H]1N2C", "Units symbol": "%", "activity, negative = cell killing": -13.4}
{"Compound": "O=c1cc[nH]c(=S)[nH]1", "Units symbol": "%", "activity, negative = cell killing": -10.9}
{"Compound": "NCCNCCNCCNCCN", "Units symbol": "%", "activity, negative = cell killing": -12.1}
{"Compound": "Cc1ccc2nc(N)[nH]c(=O)c2c1Sc1ccncc1", "Units symbol": "%", "activity, negative = cell killing": -18.7}

The reported measurements were obtained from PubChem BioAssay (NCATS).
